molecular target: Nav 1.7 (Homo sapiens, UniProt Q15858); construct: expressed in transfected cells; experiment: Whole-cell voltage clamp electrophysiology, automated patch clamp (marker c in Table of Examples); assay type: cell-based; conditions: marker c: Automated patch clamp data; read-out: Nav 1.7 activity
Sequence (Q15858 whole entry): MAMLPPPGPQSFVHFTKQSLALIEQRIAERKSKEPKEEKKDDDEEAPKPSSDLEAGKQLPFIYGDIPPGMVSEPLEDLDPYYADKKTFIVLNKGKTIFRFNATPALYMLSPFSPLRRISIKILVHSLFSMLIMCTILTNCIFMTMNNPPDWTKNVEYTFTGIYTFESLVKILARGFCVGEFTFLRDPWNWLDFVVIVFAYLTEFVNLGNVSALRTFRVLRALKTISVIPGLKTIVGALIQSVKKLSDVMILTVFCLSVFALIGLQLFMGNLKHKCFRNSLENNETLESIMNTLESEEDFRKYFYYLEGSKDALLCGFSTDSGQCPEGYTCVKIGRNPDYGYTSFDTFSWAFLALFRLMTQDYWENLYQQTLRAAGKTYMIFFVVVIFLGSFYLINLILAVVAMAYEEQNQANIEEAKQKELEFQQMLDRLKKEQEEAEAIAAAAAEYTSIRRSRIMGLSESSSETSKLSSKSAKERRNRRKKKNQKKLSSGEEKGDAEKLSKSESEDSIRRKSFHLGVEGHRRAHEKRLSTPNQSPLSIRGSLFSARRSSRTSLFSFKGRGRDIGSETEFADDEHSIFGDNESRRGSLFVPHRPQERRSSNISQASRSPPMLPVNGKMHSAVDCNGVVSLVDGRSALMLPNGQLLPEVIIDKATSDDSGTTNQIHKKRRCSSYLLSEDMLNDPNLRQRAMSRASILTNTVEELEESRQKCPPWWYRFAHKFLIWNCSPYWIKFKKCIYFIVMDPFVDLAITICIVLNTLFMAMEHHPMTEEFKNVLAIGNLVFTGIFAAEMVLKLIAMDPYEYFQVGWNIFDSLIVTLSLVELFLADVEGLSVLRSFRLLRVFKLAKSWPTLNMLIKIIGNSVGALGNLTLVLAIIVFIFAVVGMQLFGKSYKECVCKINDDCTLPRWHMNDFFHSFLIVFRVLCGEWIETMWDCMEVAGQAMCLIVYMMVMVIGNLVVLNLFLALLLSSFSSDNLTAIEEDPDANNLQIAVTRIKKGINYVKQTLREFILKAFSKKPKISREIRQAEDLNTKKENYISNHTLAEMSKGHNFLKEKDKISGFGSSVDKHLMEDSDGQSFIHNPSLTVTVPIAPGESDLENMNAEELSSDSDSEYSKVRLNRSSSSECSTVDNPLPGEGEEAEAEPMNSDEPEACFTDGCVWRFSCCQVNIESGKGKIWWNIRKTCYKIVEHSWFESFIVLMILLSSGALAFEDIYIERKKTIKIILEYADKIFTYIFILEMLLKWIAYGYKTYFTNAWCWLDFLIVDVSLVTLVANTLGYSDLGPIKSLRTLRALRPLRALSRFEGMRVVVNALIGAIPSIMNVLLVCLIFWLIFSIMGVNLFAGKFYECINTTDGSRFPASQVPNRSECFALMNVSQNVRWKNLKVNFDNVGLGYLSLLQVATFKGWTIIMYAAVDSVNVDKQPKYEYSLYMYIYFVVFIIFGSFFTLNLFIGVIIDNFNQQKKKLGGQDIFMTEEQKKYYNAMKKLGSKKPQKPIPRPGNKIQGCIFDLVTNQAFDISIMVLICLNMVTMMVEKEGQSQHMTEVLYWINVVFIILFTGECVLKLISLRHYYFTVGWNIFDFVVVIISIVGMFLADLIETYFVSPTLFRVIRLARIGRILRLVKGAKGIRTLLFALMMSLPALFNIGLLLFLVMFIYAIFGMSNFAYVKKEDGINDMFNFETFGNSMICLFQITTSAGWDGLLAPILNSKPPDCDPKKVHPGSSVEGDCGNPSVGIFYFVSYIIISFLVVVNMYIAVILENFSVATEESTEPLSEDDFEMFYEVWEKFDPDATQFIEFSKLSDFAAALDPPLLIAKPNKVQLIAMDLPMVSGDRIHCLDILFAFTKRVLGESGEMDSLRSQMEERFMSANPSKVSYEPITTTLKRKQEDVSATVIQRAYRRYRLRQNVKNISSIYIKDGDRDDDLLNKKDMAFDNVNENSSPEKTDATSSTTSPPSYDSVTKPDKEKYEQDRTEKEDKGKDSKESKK
Form field: IC50 (one value per entry).
Note: unit µM is implicit; provide only the numeric part.

These recorded examples may help you get a feel for the data.
molecule: CN(c1ccccc1)c1nc(N)nc(-c2noc(C3CCN(C(=O)CC(F)(F)F)CC3)n2)n1 [Example 164]
measured.on: Nav 1.7 (Homo sapiens, UniProt Q15858)
IC50 / µM: 9.04
--
molecule: CN(c1cccc(Cl)c1)c1nc(N)nc(-c2noc(-c3cccs3)n2)n1 [Example 101]
measured.on: Nav 1.7 (Homo sapiens, UniProt Q15858)
IC50 / µM: 0.206
--
molecule: CCN(c1ccccc1)c1nc(N)nc(-c2noc(-c3ccc(C)o3)n2)n1 [Example 97]
measured.on: Nav 1.7 (Homo sapiens, UniProt Q15858)
IC50 / µM: 1.3

The record that follows has no IC50 shown yet.
Specify IC50 for COc1ccccc1-c1nc(-c2nc(N)nc(N(C)c3cccc(F)c3)n2)no1 [Example 98] and stop.
0.318

====

Below, each entry is listed alongside its reported IC50.
biological target: Nav 1.7 (Homo sapiens, UniProt Q15858); construct: expressed in transfected cells; assay: Whole-cell voltage clamp electrophysiology, automated patch clamp (marker c in Table of Examples); type: cell-based; details: marker c = Automated patch clamp data; read-out: Nav 1.7 activity
The reply should be a number in nM, with the unit left off.

molecule: CN(c1ccccc1)c1nc(N)nc(-c2noc([C@@H]3CCCN3C(=O)CC(F)(F)F)n2)n1 [Example 451]
IC50 (nM): 7950

molecule: CN(c1ccccc1)c1nc(N)nc(-c2noc(-c3cccnn3)n2)n1 [Example 479]
IC50 (nM): 1140

molecule: CN(c1ccccc1)c1nc(N)nc(-c2noc(-c3cc(C(F)(F)F)[nH]n3)n2)n1 [Example 255]
IC50 (nM): 6450

molecule: CCC(C)S(=O)(=O)N1CCC(c2nc(-c3nc(N)nc(N(C)c4ccccc4)n3)no2)CC1 (stereo not shown) [Example 508]
IC50 (nM): 2430

molecule: CN(c1ccccc1)c1nc(N)nc(-c2noc(C(=O)N3CCCC3)n2)n1 [Example 276]
IC50 (nM): 1680

molecule: CN(c1ccccc1)c1nc(N)nc(-c2noc([C@@H]3CCCN3C(=O)CC3CC3)n2)n1 [Example 450]
IC50 (nM): 9530

molecule: CN(c1ccc(F)c(Cl)c1)c1nc(N)nc(-c2noc(-c3ccc(OCC(F)(F)F)nc3)n2)n1 [Example 414]
IC50 (nM): 410

molecule: CN(c1ccccc1)c1nc(N)nc(-c2noc(C3CC(Oc4ccccc4)C3)n2)n1 (mixture of isomers) [Example 261]
IC50 (nM): 1390

molecule: Nc1nc(Nc2cccc(Cl)c2F)nc(-c2noc(-c3ccccn3)n2)n1 [Example 264]
IC50 (nM): 774

molecule: Cc1cnc(-c2nc(-c3nc(N)nc(N(C)c4ccccc4)n3)no2)s1 [Example 342]
IC50 (nM): 2030

Dear colleague, please send me the reported IC50 for COC1CCN(c2nc(-c3nc(N)nc(Nc4cccc(F)c4)n3)no2)CC1 [Example 237] when you can.
3990

Report measured IC50; entry is CN(c1ccccc1)c1nc(N)nc(-c2noc(-c3ccc(C(F)(F)F)cn3)n2)n1 [Example 420]
2300

Output measured IC50 for this item: Nc1nc(Nc2ccccc2)nc(-c2noc(N3C[C@@H]4[C@@H](COC5CCCC5)[C@@H]4C3)n2)n1 [Example 400]
292

Dear colleague, please send me the reported IC50 for CN(c1ccccc1)c1nc(N)nc(-c2noc(C(=O)N3CCC(COCC4CC4)CC3)n2)n1 [Example 459] when you can.
3250

# return recorded IC50 for entry CN(c1ccccc1)c1nc(N)nc(-c2noc(C3CN(C(=O)OC(C)(C)C)C3)n2)n1 [Example 382]
4810

For the molecule Nc1nc(Nc2ccccc2)nc(-c2noc(-c3ncccc3C(F)(F)F)n2)n1 [Example 430] , give its measured IC50 value.
146
